The entries below come with measured coloration score values attached.
Tested on: soybean plantlets
test_protocol: High-throughput soybean screening for herbicide tolerance (plantlets)
Assay type: in vivo, soybean (A3555)
Design: key: 0 for poor tolerance, high damage, low green coloration; 1 for some tolerance, average damage, moderate green coloration; 2 for good tolerance, low damage, high green coloration
condition_context: TP22; S-3100 spray five weeks post-transformation, scored day four
Number only, please.

molecule	coloration score
H_N10: E. coli wild-type HemG protoporphyrinogen oxidase, SEQ ID NO:4 (SEQ ID NO:13 lacking start methionine) (protein, listed as Escherichia coli) MKTLILFSTRDGQTREIASYLASELKELGIQADVANVHRIEEPQWENYDRVVIGASIRYGHYHSAFQEFVKKHATRLNSMPSAFYSVNLVARKPEKRTPQTNSYARKFLMNSQWRPDRCAVIAGALRYPRYRWYDRFMIKLIMKMSGGETDTRKEVVYTDWEQVANFAREIAHLTDKPTLK	1
H_N100: microbial HemG protoporphyrinogen oxidase, SEQ ID NO:9 (SEQ ID NO:17 lacking start methionine; variant 20) (protein, listed as Enterobacter cloacae) MKTLILFSTRDGQTREIAAFLASELKEQGIYADVINLNRTEEIAWQEYDRVVIGASIRYGHFHPAVDRFVKKHTETLNSLPGAFFSVNLVARKAEKRTPQTNSYTRKFLLNSPWKPAACAVFAGALRYPRYRWYDRFMIRLIMKMTGGETDTRKEVVYTDWSQVASFAREIVQLTRSSRL	2
H_N20: microbial HemG protoporphyrinogen oxidase, SEQ ID NO:2 (SEQ ID NO:12 lacking start methionine) (protein, listed as Pantoea ananatis) MKALILFSTRDGQTQKIASAIADEIKGQQSCDVINIQDAKTLDWQQYDRVLIGASIRYGHFQPVVNEFVKHNLLALQQRVSGFFSVNLTARKPEKRSPETNAYTVKFLAQSPWQPDCCAVFAGALYYPRYRWFDRVMIQFIMRMTGGETDASKEVEYTDWQQVQRFARDFAQLPGKSY	1
H_N50: microbial HemG protoporphyrinogen oxidase, SEQ ID NO:7 (SEQ ID NO:16 lacking start methionine) (protein, listed as Shimwellia blattae) MKTLILFSTRDGQTHKIARHIAGVLEEQGKACELVDLLQPGEPDWSTVECVVLGASIRYGHFHKSFIRFVNTHAQRLNNMPGALFTVNLVARKPEKQSPQTNSYTRKFLAASPWQPQRCQVFAGALRYPRYSWYDRMMIRLIMKMAGGETDTRKEVEYTDWQSVTRFAREIAQLPGETR	2

// below: coloration score requested for another molecule
For reference, reported coloration score for H_N90: microbial HemG protoporphyrinogen oxidase, SEQ ID NO:1 (SEQ ID NO:11 lacking start methionine; variants 18, 19) (protein, listed as Enterobacter cloacae) MKALVLYSTRDGQTHAIASYIASCMKEKAECDVIDLTHGEHVNLTQYDQVLIGASIRYGHFNAVLDKFIKRNVDQLNNMPSAFFCVNLTARKPEKRTPQTNPYVRKFLLATPWQPALCGVFAGALRYPRYRWIDKVMIQLIMRMTGGETDTSKEVEYTDWEQVKKFAEDFAKLSYKKAL stands at 2
